All values here come from ChEMBL document CHEMBL1177741.

assay: Cardiotonic activity in guinea pig left atrial muscles assessed as minimum positive inotropic effective concentration causing myocardial contraction; type: functional, Cavia porcellus, Muscle tissue
readout_name: Activity

1. C[C@@H]1O[C@@H](O[C@H]2CC[C@@]3(CO)[C@H](CC[C@@H]4[C@@H]3CC[C@]3(C)[C@@H](C5=CC(=O)OC5)CC[C@]43O)C2)[C@H](O)[C@H](O)[C@H]1O[C@@H]1O[C@H](CO)[C@@H](O)[C@H](O)[C@H]1O [ANTIAROSIDE B] = 0.38 µM

Turning now to a further record.
I would be grateful if you could share the reported Activity for "C[C@@H]1O[C@H](O[C@H]2CC[C@]3(C=O)[C@H]4C[C@@H](O)[C@]5(C)[C@@H](C6=CC(=O)OC6)CC[C@]5(O)[C@@H]4CC[C@]3(O)C2)[C@H](O)[C@H](O)[C@H]1O" .
1 µM
